// provenance: patent US10758534B2

molecular target: F508del (Homo sapiens, UniProt P13569, DEL508-508); construct: expressed in transfected cells; assay: Protocol 1: membrane potential optical assay (FLIPR III, voltage sensing dye), identification of potentiator compounds; assay type: cell-based; conditions: Table 3, compounds of Table 1
Sequence (P13569 with tags, fused parts or gaps DEL508-508): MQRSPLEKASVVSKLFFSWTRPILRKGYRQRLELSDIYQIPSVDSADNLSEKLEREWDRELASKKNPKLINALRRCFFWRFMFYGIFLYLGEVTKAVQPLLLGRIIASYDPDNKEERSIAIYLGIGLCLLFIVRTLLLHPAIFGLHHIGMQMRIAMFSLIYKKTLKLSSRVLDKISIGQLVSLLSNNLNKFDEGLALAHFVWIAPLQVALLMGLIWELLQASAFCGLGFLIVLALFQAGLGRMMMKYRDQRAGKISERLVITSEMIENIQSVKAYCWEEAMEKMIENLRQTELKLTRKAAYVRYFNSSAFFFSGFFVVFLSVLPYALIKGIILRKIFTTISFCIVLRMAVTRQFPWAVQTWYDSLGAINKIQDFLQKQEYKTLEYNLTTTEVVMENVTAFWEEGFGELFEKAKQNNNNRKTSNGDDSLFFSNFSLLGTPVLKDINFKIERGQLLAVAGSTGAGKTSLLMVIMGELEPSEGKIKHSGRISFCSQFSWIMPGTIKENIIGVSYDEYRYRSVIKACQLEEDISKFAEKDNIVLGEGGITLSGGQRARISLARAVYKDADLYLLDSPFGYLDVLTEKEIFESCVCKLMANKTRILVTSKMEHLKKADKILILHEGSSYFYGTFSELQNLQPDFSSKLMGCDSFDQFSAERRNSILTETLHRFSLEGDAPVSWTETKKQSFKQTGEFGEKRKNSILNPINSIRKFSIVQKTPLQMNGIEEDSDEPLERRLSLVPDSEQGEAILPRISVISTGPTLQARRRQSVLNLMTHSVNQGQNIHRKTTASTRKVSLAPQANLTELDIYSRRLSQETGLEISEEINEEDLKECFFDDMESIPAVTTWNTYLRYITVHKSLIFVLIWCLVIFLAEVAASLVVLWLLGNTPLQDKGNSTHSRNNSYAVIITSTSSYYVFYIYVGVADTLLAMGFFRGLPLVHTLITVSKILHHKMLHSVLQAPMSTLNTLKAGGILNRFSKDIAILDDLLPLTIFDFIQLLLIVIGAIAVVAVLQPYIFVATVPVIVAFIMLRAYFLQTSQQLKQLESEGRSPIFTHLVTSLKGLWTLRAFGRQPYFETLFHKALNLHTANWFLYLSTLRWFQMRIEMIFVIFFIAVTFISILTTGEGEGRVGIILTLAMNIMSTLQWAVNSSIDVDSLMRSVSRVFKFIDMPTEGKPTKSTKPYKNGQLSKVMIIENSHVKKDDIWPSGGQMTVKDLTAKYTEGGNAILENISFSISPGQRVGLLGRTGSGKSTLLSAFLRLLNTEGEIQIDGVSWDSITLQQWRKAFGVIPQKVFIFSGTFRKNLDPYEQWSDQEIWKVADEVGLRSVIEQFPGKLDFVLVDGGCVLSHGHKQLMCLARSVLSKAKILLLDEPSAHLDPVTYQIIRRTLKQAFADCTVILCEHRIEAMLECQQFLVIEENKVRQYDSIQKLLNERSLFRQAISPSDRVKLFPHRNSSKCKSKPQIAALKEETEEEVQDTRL
Readout Label: EC30

Molecule	Readout Label	Result
CC1CN(c2nc(-c3ccccc3)ccc2C(=O)NS(=O)(=O)c2cccc(N)n2)C(C)(C)C1 (stereo not shown)	EC30	+++ (“+++” means <3 uM)
CC(C)COc1cc(F)cc(-c2ccc(C(=O)NS(=O)(=O)c3cccc(N)n3)c(OCCC3CC3)n2)c1	EC30	+++ (“+++” means <3 uM)
CCC1CCCN(c2nc(-c3ccc(OC(C)C)nc3)ccc2C(=O)NS(=O)(=O)c2cccc(N)n2)C1 (stereo not shown)	EC30	+++ (“+++” means <3 uM)
CCc1ccccc1-c1cnc(Oc2c(C)cc(C)cc2C)c(C(=O)NS(=O)(=O)c2cccc(N)n2)c1	EC30	+++ (“+++” means <3 uM)

* * *

target: F508del (Homo sapiens, UniProt P13569, DEL508-508); construct: expressed in transfected cells; experiment: Protocol 1: membrane potential optical assay (FLIPR III, voltage sensing dye), identification of potentiator compounds; format: cell-based; settings: Table 3, compounds of Table 1
Readout Label: EC30

Check out these entries, answers already filled in.
Compound	Tested On	Result
Cc1cc(C)c(Oc2nc(-c3cnn(CC(C)C)c3)ccc2C(=O)NS(=O)(=O)c2nccnc2N)c(C)c1	F508del (Homo sapiens, UniProt P13569, DEL508-508)	+++ (“+++” means <3 uM)
COc1cc(Cl)ccc1-c1ccc(C(=O)NS(=O)(=O)c2cccc(N)n2)c(Oc2c(C)cc(C)cc2C)n1	F508del (Homo sapiens, UniProt P13569, DEL508-508)	+++ (“+++” means <3 uM)
CC(C)COc1cc(F)cc(-c2ccc(C(=O)NS(=O)(=O)c3cccc(N)n3)c(N3CCCC4(CC4)C3)n2)c1	F508del (Homo sapiens, UniProt P13569, DEL508-508)	+++ (“+++” means <3 uM)
Cc1cc(C)c(CN2C(C(=O)NS(=O)(=O)c3cc(N)ccc3C)c3ccccc3C2(C)C)c(C)c1 (stereo not shown)	F508del (Homo sapiens, UniProt P13569, DEL508-508)	+++ (“+++” means <3 uM)
CC(C)COc1cc(F)cc(-c2ccc(C(=O)NS(=O)(=O)c3ccn[nH]3)c(N3CCC[C@@H]3c3ccccc3)n2)c1	F508del (Homo sapiens, UniProt P13569, DEL508-508)	+++ (“+++” means <3 uM)

Please turn your attention to the following entry.
Field request: EC30 | item: CC1CCCN(c2nc(C(C)(C)C)ccc2C(=O)NS(=O)(=O)c2cccc(N)n2)C1 (stereo not shown)
+++ (“+++” means <3 uM)

* * *

target: F508del (Homo sapiens, UniProt P13569, DEL508-508); construct: expressed in transfected cells; experiment: Protocol 1: membrane potential optical assay (FLIPR III, voltage sensing dye), identification of potentiator compounds; type: cell-based; conditions: Table 3, compounds of Table 1

Compound	Tested On	EC30
C[C@@H]1CN(c2nc(C3CC(C)(C)CCC3=O)ccc2C(=O)NS(=O)(=O)c2cccnc2N)C(C)(C)C1 (stereo partly drawn) [Compound 1793]	F508del (Homo sapiens, UniProt P13569, DEL508-508)	+++ (“+++” means <3 uM)
CC(C)COc1cc(F)cc(-c2ccc(C(=O)NS(=O)(=O)N3CCC(S(C)(=O)=O)C3)c(N3C[C@@H](C)CC3(C)C)n2)c1 (stereo partly drawn) [Compound 1560]	F508del (Homo sapiens, UniProt P13569, DEL508-508)	+++ (“+++” means <3 uM)
CC1CN(c2nc(C(C)(C)C)c(C3=CCC4(CC3)OCCO4)cc2C(=O)NS(=O)(=O)c2cccc(N)n2)C(C)(C)C1 (stereo not drawn) [Compound 1459]	F508del (Homo sapiens, UniProt P13569, DEL508-508)	+++ (“+++” means <3 uM)
